System: SW-620 colon
Assay: NCI-60 one-dose screen, 48 h (100 = growth as untreated, 0 = no growth, -100 = all killed)
Conditions: 10 µM unless noted
About 83,000 compounds went through this panel and 20% of them were active in at least one assay; those are over-represented in the sample as a whole.
QUANTITY: growth (%)

{"columns": ["COMPOUND", "UOM", "TEST_RESULT"],
 "data": [
  ["O=C(Nc1cnn2ccc(N3CCC[C@@H]3c3cc(F)ccc3F)nc12)N1CC[C@H](O)C1", "%", 106],
  ["COc1cc2nc(Nc3cccc(Cl)c3)nc(N)c2cc1OC", "%", 83.6],
  ["Cn1nccc1Nc1nccc(-c2ccn([C@H](CO)c3ccc(Cl)c(F)c3)c(=O)c2)n1", "%", 62.7],
  ["Cc1nn(-c2nc3ccccc3[nH]2)c2c1C(c1ccc(O)cc1)CC(=O)N2 (stereo not given)", "%", 93.5],
  ["Cc1cc([C@@H](C)Nc2ccccc2C(=O)O)c2nc(N3CCOCC3)cc(=O)n2c1", "%", 35]
]}
